Exercise: for every item that follows, state its recorded IC50.
Tested on: NFAT
measurement.protocol: Cellular NFAT-reporter-gene assay (GloResponse NFAT-RE-luc2P HEK293)
Format: cell-based
reported.conditions: Homo sapiens, HEK293, 16 h, read-out: NFAT-reporter-gene assay IC50

Exercise: Endpoint output: IC50 of CC[C@@H]1NC(=O)[C@H]([C@H](O)[C@H](C)Cc2nc3cc(S(N)(=O)=O)ccc3[nH]2)N(C)C(=O)[C@H](C(C)C)N(C)C(=O)[C@H](CC(C)C)N(C)C(=O)[C@H](CC(C)C)N(C)C(=O)[C@@H](C)NC(=O)[C@H](C)NC(=O)[C@H](CC(C)C)N(C)C(=O)[C@H](C(C)C)NC(=O)[C@H](CC(C)C)N(C)C(=O)CN(C)C1=O . Value?
Solution: > 10 µM

Exercise: Record: CC[C@@H]1NC(=O)[C@H]([C@H](O)[C@H](C)Cc2nc3cc(C(=O)O)ccc3n2C)N(C)C(=O)[C@H](C(C)C)N(C)C(=O)[C@H](CC(C)C)N(C)C(=O)[C@H](CC(C)C)N(C)C(=O)[C@@H](C)NC(=O)[C@H](C)NC(=O)[C@H](CC(C)C)N(C)C(=O)[C@H](C(C)C)NC(=O)[C@H](CC(C)C)N(C)C(=O)CN(C)C1=O
Solution: > 10 µM

Exercise: Record: CC[C@@H]1NC(=O)[C@H]([C@H](O)[C@H](C)Cc2nc3cc(-c4ccc(N)c(N)c4)ccc3[nH]2)N(C)C(=O)[C@H](C(C)C)N(C)C(=O)[C@H](CC(C)C)N(C)C(=O)[C@H](CC(C)C)N(C)C(=O)[C@@H](C)NC(=O)[C@H](C)NC(=O)[C@H](CC(C)C)N(C)C(=O)[C@H](C(C)C)NC(=O)[C@H](CC(C)C)N(C)C(=O)CN(C)C1=O
Solution: 10 µM

Exercise: Record: CC[C@@H]1NC(=O)[C@H]([C@H](O)[C@H](C)CC2=NC(C(=O)O)CO2)N(C)C(=O)[C@H](C(C)C)N(C)C(=O)[C@H](CC(C)C)N(C)C(=O)[C@H](CC(C)C)N(C)C(=O)[C@@H](C)NC(=O)[C@H](C)NC(=O)[C@H](CC(C)C)N(C)C(=O)[C@H](C(C)C)NC(=O)[C@H](CC(C)C)N(C)C(=O)CN(C)C1=O (some centres unmarked)
Solution: 5.3 µM

Exercise: Record: CC[C@@H]1NC(=O)[C@H]([C@H](O)[C@H](C)Cc2nc3ccc4c(S(=O)(=O)O)cccc4c3[nH]2)N(C)C(=O)[C@H](C(C)C)N(C)C(=O)[C@H](CC(C)C)N(C)C(=O)[C@H](CC(C)C)N(C)C(=O)[C@@H](C)NC(=O)[C@H](C)NC(=O)[C@H](CC(C)C)N(C)C(=O)[C@H](C(C)C)NC(=O)[C@H](CC(C)C)N(C)C(=O)CN(C)C1=O
Solution: > 10 µM

Exercise: Record: CC[C@@H]1NC(=O)[C@H]([C@H](O)[C@H](C)Cc2nc3cc(S(=O)(=O)O)ccc3[nH]2)N(C)C(=O)[C@H](C(C)C)N(C)C(=O)[C@H](CC(C)C)N(C)C(=O)[C@H](CC(C)C)N(C)C(=O)[C@@H](C)NC(=O)[C@H](C)NC(=O)[C@H](CC(C)C)N(C)C(=O)[C@H](C(C)C)NC(=O)[C@H](CC(C)C)N(C)C(=O)CN(C)C1=O
Solution: > 10 µM

Exercise: Record: CC[C@@H]1NC(=O)[C@H]([C@H](O)[C@H](C)Cc2nc3cc(NC(=N)N)ccc3[nH]2)N(C)C(=O)[C@H](C(C)C)N(C)C(=O)[C@H](CC(C)C)N(C)C(=O)[C@H](CC(C)C)N(C)C(=O)[C@@H](C)NC(=O)[C@H](C)NC(=O)[C@H](CC(C)C)N(C)C(=O)[C@H](C(C)C)NC(=O)[C@H](CC(C)C)N(C)C(=O)CN(C)C1=O
Solution: > 10 µM

Exercise: Record: CC[C@@H]1NC(=O)[C@H]([C@H](O)[C@H](C)Cc2nc3ccc(C(=O)OC)c(C(=O)OC)c3[nH]2)N(C)C(=O)[C@H](C(C)C)N(C)C(=O)[C@H](CC(C)C)N(C)C(=O)[C@H](CC(C)C)N(C)C(=O)[C@@H](C)NC(=O)[C@H](C)NC(=O)[C@H](CC(C)C)N(C)C(=O)[C@H](C(C)C)NC(=O)[C@H](CC(C)C)N(C)C(=O)CN(C)C1=O
Solution: > 10 µM

Exercise: Record: CCC(CC)COC(=O)c1ccc2[nH]c(C[C@@H](C)[C@@H](O)[C@H]3C(=O)N[C@@H](CC)C(=O)N(C)CC(=O)N(C)[C@@H](CC(C)C)C(=O)N[C@@H](C(C)C)C(=O)N(C)[C@@H](CC(C)C)C(=O)N[C@@H](C)C(=O)N[C@H](C)C(=O)N(C)[C@@H](CC(C)C)C(=O)N(C)[C@@H](CC(C)C)C(=O)N(C)[C@@H](C(C)C)C(=O)N3C)nc2c1
Solution: > 10 µM

Exercise: Record: CC[C@@H]1NC(=O)[C@H]([C@H](O)[C@H](C)Cc2nc3cc(NS(=O)(=O)C(F)(F)F)ccc3[nH]2)N(C)C(=O)[C@H](C(C)C)N(C)C(=O)[C@H](CC(C)C)N(C)C(=O)[C@H](CC(C)C)N(C)C(=O)[C@@H](C)NC(=O)[C@H](C)NC(=O)[C@H](CC(C)C)N(C)C(=O)[C@H](C(C)C)NC(=O)[C@H](CC(C)C)N(C)C(=O)CN(C)C1=O
Solution: > 10 µM

Exercise: Record: CC[C@@H]1NC(=O)[C@H]([C@H](O)[C@H](C)Cc2nc3cccc(C(=O)OC)c3[nH]2)N(C)C(=O)[C@H](C(C)C)N(C)C(=O)[C@H](CC(C)C)N(C)C(=O)[C@H](CC(C)C)N(C)C(=O)[C@@H](C)NC(=O)[C@H](C)NC(=O)[C@H](CC(C)C)N(C)C(=O)[C@H](C(C)C)NC(=O)[C@H](CC(C)C)N(C)C(=O)CN(C)C1=O
Solution: 10 µM
